- Assay notes: AUC (infinity) in healthy human at 400 mg, po administered as single dose
- Assay type: ADME, organism-based
- Parameters: dose 400 mg, time infinity, route oral
- Experimental setup: plasma
Measurement label: AUC(0-inf) (µM·h)
Supply the numeric figure in µM·h, leaving out any unit text.

q: Read off the recorded AUC(0-inf) for CCN(CCO)CCCC(C)Nc1ccnc2cc(Cl)ccc12 (stereo unspecified) [HYDROXYCHLOROQUINE]
a: 102

* * *

- Assay notes: Tmax in healthy human at 400 mg, po administered as single dose
- Assay type: ADME, organism-based
- Experimental setup: in vivo
Measurement label: Tmax
# output: numeric value plus its unit

q: Answer with reported Tmax of CCN(CCO)CCCC(C)Nc1ccnc2cc(Cl)ccc12 (stereo unspecified) [HYDROXYCHLOROQUINE]
a: 2.4 h
